Molecular target: T1, P9SHb
T1 chain: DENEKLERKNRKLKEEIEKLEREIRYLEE
Test: two-hybrid library CCNG1;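 note: natural log of median RNA to DNA barcode read ratio; higher means stronger binding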
# note: exactly 0.2 is not below, so it is N; use Y for interaction score strictly under it

| Binder | Class |
| --- | --- |
| DKNEELKREIERLEEENRELERKIEYLKR [P6SHb] | N |
| DEIRELEEKNEELKREIRELEEKNEYLKR [P7SHb] | Y |
| DEIKELEEEIRELEEKNEELKRKNEWLKR [P3SHb] | Y |
| DKIEELKRKIEKLKRENERLERENEWLER [P4SHb] | N |
| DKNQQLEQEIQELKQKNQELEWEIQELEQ [4H3185-bN] | Y |
| DKIEELKRENRELERKIRELKRENEYLER [P8SHb] | Y |

Origin of values: paper PMC10397247
